target: human Edg-1(S1P1) (Homo sapiens); construct: expressed in transfected cells; host or cells: HEK-293; assay: Cell system binding test: inhibition of [3H]-S1P binding to Edg-1(S1P1) gene transferred HEK-293 cells; settings: 10 μM compound, [3H]-S1P 10 nM, read-out: Cell system binding test % inhibition (10 μM)
Readout type: inhibition at 10 µM (%)

Compound	inhibition at 10 µM / %
CCn1c(SCc2ccccc2Cl)nnc1[C@@H](C)NS(=O)(=O)c1ccc(Cl)cc1	85.4
CCOc1nnc([C@@H](C)NS(=O)(=O)c2ccc3c(c2)OCO3)n1CC	99.5
CCn1c(OC)nnc1[C@@H](C)NS(=O)(=O)c1cc(Cl)sc1Cl	97.4
CCn1c(SCC2CCCN(C)C2)nnc1[C@@H](C)NS(=O)(=O)c1ccc(Cl)cc1 (some centres unmarked)	83.3
CCn1c(OC)nnc1[C@@H](C)NS(=O)(=O)c1ccsc1C(=O)OC	96.3
CCn1c(SCc2cccc(Cl)c2)nnc1[C@@H](C)NS(=O)(=O)c1ccc(Cl)cc1	93
C=CCSc1nnc([C@@H](C)NS(=O)(=O)c2ccc(Cl)cc2)n1CCC	94
CCn1c(OC)nnc1[C@@H](C)NS(=O)(=O)c1cccc2ccccc12	102

====

target: human Edg-1(S1P1) (Homo sapiens, UniProt P21453); construct: expressed in transfected cells; host or cells: HEK-293; assay: Cell system binding test: inhibition of [3H]-S1P binding to Edg-1(S1P1) gene transferred HEK-293 cells; conditions: 10 μM compound, [3H]-S1P 10 nM, read-out: Cell system binding test % inhibition (10 μM)
Sequence (P21453 whole entry): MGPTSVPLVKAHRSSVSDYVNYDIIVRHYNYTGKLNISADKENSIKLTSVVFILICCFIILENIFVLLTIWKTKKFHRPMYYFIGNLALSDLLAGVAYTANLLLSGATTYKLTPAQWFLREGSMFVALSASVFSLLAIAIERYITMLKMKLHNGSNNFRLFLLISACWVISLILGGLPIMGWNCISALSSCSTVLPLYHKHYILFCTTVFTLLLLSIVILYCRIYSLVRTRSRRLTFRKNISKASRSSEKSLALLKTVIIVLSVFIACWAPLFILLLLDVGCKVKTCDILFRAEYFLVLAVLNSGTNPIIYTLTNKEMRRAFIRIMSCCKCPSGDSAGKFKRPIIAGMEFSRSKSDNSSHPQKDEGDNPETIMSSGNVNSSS
Readout type: inhibition at 10 µM (%)

Use these answered entries as a reference point.
Compound	Test result
CCn1c(OC)nnc1[C@@H](C)NS(=O)(=O)c1cc2ccccc2o1	97.5
CCn1c(OC)nnc1[C@@H](C)NS(=O)(=O)c1ccc2c(c1)CCO2	102
CCn1c(SC2CCCCC2)nnc1[C@@H](C)NS(=O)(=O)c1ccc(Cl)cc1	83.9
CCn1c(OC)nnc1[C@@H](C)NS(=O)(=O)c1cc(Cl)cc(Cl)c1O	97.2
CCn1c(OC(C)C)nnc1[C@@H](C)NS(=O)(=O)c1ccc(Cl)cc1	99.7
CCOc1nnc([C@@H](C)NS(=O)(=O)c2cc(F)c(F)c(F)c2)n1CC	92.3

P = CCn1c(SC2CCOC2)nnc1[C@@H](C)NS(=O)(=O)c1ccc(Cl)cc1 (some centres unmarked)
Q = CCCCNC(=O)Nc1ccc(S(=O)(=O)N[C@H](C)c2nnc(OC)n2CC)cc1
Could you tell me which of these two has the smaller inhibition at 10 µM figure? First: P Second: Q Reply briefly: the label of your chosen item. Q

====

molecular target: human Edg-1(S1P1) (Homo sapiens); construct: expressed in transfected cells; host or cells: HEK-293; assay: Cell system binding test: inhibition of [3H]-S1P binding to Edg-1(S1P1) gene transferred HEK-293 cells; details: test compound 10^-5 M, [3H]-S1P 10 nM, 1 hour, read-out: Edg-1(S1P1) binding inhibition rate (cell system binding test)
Readout type: inhibition at 10 µM (%)

Smiles input	inhibition at 10 µM (%)
CCn1c(OCC(F)(F)F)nnc1[C@@H](C)NS(=O)(=O)c1ccc(C)c(F)c1	102
CCn1c(OCC(F)(F)F)nnc1[C@@H](C)NS(=O)(=O)c1ccc(Cl)c(Cl)c1	103
CCn1c(OCC(F)(F)F)nnc1[C@@H](C)NS(=O)(=O)c1cccc(C)c1	103
CCn1c(OC(C)C)nnc1[C@@H](C)NS(=O)(=O)c1ccc(Br)c(Br)c1	100
